# Test system: HeLa Kyoto;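 note: synchronized HeLa Kyoto cells (double thymidine block for G1/S, nocodazole release for mitosis), protein amounts in NP-40 versus SDS lysates quantified by mass spectrometry, three biological replicates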
# test details: solubility change mitosis vs G1/S (difference of NP-40 vs SDS log2 ratios) (log2 ratio difference); higher = more soluble in mitosis
measured property: solubility change mitosis (log2)
Keep it simple and answer with nothing but the number.

GET /value?item= MVDHLANTEINSQRIAAVESCFGASGQPLALPGRVLLGEGVLTKECRKKAKPRIFFLFNDILVYGSIVLNKRKYRSQHIIPLEEVTLELLPETLQAKNRWMIKTAKKSFVVSAASATERQEWISHIEECVRRQLRATGRPPSTEHAAPWIPDKATDICMRCTQTRFSALTRRHHCRKCGFVVCAECSRQRFLLPRLSPKPVRVCSLCYRELAAQQRQEEAEEQGAGSPGQPAHLARPICGASSGDDDDSDEDKEGSRDGDWPSSVEFYASGVAWSAFHS [PLEKHF1] &field=solubility change mitosis (log2) returns 0.00206

GET /value?item= MAIRKKSTKSPPVLSHEFVLQNHADIVSCVAMVFLLGLMFEITAKASIIFVTLQYNVTLPATEEQATESVSLYYYGIKDLATVFFYMLVAIIIHAVIQEYMLDKINRRMHFSKTKHSKFNESGQLSAFYLFACVWGTFILISENYISDPTILWRAYPHNLMTFQMKFFYISQLAYWLHAFPELYFQKTKKEDIPRQLVYIGLYLFHIAGAYLLNLNHLGLVLLVLHYFVEFLFHISRLFYFSNEKYQKGFSLWAVLFVLGRLLTLILSVLTVGFGLARAENQKLDFSTGNFNVLAVRIAVLASICVTQAFMMWKFINFQLRRWREHSAFQAPAVKKKPTVTKGRSSKKGTENGVNGTLTSNVADSPRNKKEKSS [TRAM1] &field=solubility change mitosis (log2) returns -0.0373
